FYI, the data here is from patent US20200040059A1.

# SYSTEM_NAME: T1, TIGIT (human) (UniProt Q495A1)
# T1 sequence: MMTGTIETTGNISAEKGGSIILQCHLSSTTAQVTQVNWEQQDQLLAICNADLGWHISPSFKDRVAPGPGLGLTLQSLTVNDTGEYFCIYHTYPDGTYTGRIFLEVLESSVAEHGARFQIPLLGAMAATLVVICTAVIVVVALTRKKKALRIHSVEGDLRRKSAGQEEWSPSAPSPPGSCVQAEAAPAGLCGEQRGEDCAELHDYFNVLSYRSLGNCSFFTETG
# TEST_DESCRIPTION: flow cytometry, cells expressing target, 25 nM
ENDPOINT: MFI at 25 nM (MFI)
Field: numeric (MFI). Do not append units.

Field: example entries. Status: answers known.
BINDER	MFI at 25 nM, MFI
CD155 variant IgV-Fc P18T, S52A, V57A, Q60R, Q62K, S65C, L79P, F91T, N100Y, T107M (Fc fusion, not shown: a dimerising Fc or GST; large carriers; small tags and cut ends) PGTGDVVVQAPTQVTGFLGDSVTLPCYLQVPNMEVTHVSQLTWARHGEAGSMAAFHRTKGPCYSESKRLEFVAARPGAELRNASLRMTGLRVEDEGYYTCLFVMFPQGSRSVDIWL	187000
CD155 variant IgV-Fc V9L, P18F, T45A, S65A, S67V, R78K, L79V, F91S, T107M, S114T (Fc fusion, not shown: a dimerising Fc or GST; small tags and cut ends) PGTGDLVVQAPTQVFGFLGDSVTLPCYLQVPNMEVTHVSQLAWARHGESGSMAVFHQTQGPAYVESKRLEFVAAKVGAELRNASLRMSGLRVEDEGNYTCLFVMFPQGSRTVDIWL	130000
CD155 variant IgV-Fc T15S, P18S, Y30H, Q32L, Q62R, L79P, F91S, T107M (Fc fusion, not shown: a dimerising Fc or GST; small tags and cut ends) PGTGDVVVQAPSQVSGFLGDSVTLPCHLLVPNMEVTHVSQLTWARHGESGSMAVFHQTRGPSYSESKRLEFVAARPGAELRNASLRMSGLRVEDEGNYTCLFVMFPQGSRSVDIWL	16200
CD155 variant IgV-Fc P18T, D23G, Q60R, S67L, L79P, F91S, T107M, V115A (Fc fusion, not shown: a dimerising Fc or GST; small tags and cut ends) PGTGDVVVQAPTQVTGFLGGSVTLPCYLQVPNMEVTHVSQLTWARHGESGSMAVFHRTQGPSYLESKRLEFVAARPGAELRNASLRMSGLRVEDEGNYTCLFVMFPQGSRSADIWL	64100

# lookup: MFI at 25 nM of CD155 variant IgV-Fc P18S, H59R, A76G, R78S, L79P (Fc fusion, not shown: a dimerising Fc or GST; large carriers; small tags and cut ends) PGTGDVVVQAPTQVSGFLGDSVTLPCYLQVPNMEVTHVSQLTWARHGESGSMAVFRQTQGPSYSESKRLEFVGASPGAELRNASLRMFGLRVEDEGNYTCLFVTFPQGSRSVDIWL
131000
